Biological target: Ephrin type-B receptor 6 (Homo sapiens); note: in the data inactive means no Kd found up to 30 µM
Sequence (O15197 whole entry): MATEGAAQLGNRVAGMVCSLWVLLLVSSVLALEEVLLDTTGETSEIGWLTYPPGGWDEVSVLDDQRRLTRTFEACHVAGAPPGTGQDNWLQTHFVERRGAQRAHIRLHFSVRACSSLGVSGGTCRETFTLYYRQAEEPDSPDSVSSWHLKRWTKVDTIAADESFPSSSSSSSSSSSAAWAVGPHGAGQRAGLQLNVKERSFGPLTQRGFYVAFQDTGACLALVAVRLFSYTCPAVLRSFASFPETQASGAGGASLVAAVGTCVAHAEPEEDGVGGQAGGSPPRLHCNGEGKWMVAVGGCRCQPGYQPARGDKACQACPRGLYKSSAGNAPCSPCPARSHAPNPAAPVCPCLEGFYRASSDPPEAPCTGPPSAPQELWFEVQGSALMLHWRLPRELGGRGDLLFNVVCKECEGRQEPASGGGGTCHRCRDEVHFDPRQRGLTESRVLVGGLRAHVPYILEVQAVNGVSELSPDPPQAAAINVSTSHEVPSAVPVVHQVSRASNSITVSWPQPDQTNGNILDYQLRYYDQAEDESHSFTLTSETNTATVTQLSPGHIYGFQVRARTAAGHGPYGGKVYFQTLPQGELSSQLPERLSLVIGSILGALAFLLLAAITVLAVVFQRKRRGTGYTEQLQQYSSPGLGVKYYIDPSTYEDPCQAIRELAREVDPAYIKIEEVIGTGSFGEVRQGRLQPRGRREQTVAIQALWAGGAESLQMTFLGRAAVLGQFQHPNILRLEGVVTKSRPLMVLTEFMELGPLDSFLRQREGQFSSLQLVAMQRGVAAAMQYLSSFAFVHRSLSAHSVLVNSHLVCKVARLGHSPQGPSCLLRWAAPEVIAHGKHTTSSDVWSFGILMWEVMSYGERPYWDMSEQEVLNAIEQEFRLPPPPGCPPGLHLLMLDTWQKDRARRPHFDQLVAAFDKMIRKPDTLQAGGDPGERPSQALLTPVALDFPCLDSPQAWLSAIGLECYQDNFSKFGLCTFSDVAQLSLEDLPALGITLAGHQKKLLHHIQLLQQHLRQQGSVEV
Active and inactive are the calls of the source.
Observable: Kd

# lookup: Kd of CCS(=O)(=O)N1CC(CC#N)(n2cc(-c3ncnc4[nH]ccc34)cn2)C1
> 30 µM (inactive)

Now the same for Cn1ncc(Cl)c1-c1cc(C(=O)N[C@H](CN)Cc2cccc(F)c2)sc1Cl
> 30 µM (inactive)

Repeat for the following compound: Cc1nc(N)sc1-c1ccnc(Nc2ccc(N3CCOCC3)cc2)n1
0.073 µM

Entry to check: C[C@@H](Nc1cc(F)cc(F)c1)c1cc(C(=O)N(C)C)cc2c(=O)cc(N3CCOCC3)oc12
> 30 µM (inactive)

Also CC[C@@H]1C(=O)N(C)c2cnc(Nc3ccc(C(=O)N[C@H]4CC[C@H](N5CCN(CC6CC6)CC5)CC4)cc3OC)nc2N1C(C)C ?
> 30 µM (inactive)

// same read-out, input: COc1cc(OC)c(/C=C/S(=O)(=O)Cc2ccc(OC)c(NCC(=O)O)c2)c(OC)c1
> 30 µM (inactive)

Next compound up: Cc1c(F)cc(C(=O)NC2CC2)cc1-c1ccc(C(=O)NCC(C)(C)C)cn1
> 30 µM (inactive)

And then O=c1sn(-c2cccc3ccccc23)c(=O)n1Cc1ccccc1 , what is it?
> 30 µM (inactive)

Continue with COc1ccc(-c2ccc3c(N4CCOC[C@@H]4C)nc(N4CCOC[C@@H]4C)nc3n2)cc1CO
> 30 µM (inactive)

Would you mind doing COc1cc(CCc2cc(NC(=O)c3ccc(N4C[C@@H](C)N[C@@H](C)C4)cc3)n[nH]2)cc(OC)c1 as well?
> 30 µM (inactive)

Next record, please: CC(=O)Nc1cccc(-n2c(=O)n(C3CC3)c(=O)c3c(Nc4ccc(I)cc4F)n(C)c(=O)c(C)c32)c1
> 30 µM (inactive)

====

molecular target: Serine/threonine-protein kinase D2 (Homo sapiens, UniProt Q9BZL6); note: in the data inactive means no Kd found up to 30 µM
Sequence (Q9BZL6 whole entry): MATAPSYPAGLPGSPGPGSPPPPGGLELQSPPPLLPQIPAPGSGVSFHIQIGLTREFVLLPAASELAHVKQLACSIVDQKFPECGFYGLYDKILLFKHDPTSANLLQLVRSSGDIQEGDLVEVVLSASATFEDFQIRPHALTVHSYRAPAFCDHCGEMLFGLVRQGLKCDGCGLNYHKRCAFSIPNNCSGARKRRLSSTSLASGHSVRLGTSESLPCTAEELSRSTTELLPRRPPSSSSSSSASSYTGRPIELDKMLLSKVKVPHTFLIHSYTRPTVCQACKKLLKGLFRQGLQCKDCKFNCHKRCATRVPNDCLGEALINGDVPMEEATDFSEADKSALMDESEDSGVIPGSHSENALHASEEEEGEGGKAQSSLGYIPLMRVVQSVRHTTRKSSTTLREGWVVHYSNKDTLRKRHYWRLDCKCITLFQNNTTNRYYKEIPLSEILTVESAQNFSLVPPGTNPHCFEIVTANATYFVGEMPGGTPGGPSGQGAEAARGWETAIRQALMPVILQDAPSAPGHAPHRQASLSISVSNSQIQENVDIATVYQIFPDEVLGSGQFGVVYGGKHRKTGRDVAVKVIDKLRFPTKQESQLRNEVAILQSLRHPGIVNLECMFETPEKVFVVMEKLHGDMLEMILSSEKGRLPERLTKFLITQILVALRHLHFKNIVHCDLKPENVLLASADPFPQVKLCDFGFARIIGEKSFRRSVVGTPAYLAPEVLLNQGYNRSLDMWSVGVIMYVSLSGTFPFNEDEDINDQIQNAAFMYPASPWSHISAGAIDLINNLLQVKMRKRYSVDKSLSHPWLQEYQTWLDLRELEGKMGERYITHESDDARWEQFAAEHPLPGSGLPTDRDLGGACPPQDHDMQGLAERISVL
Active and inactive are the calls of the source.
Form entry, call: pick from t = active, f = inactive

Just curious, what result did COCCNCc1ccc(-c2cc3nccc(Oc4ccc(NC(=S)NC(=O)Cc5ccc(F)cc5)cc4F)c3s2)nc1 get here?
f

Same read-out for CNC(=O)c1ccc(-c2cnc3ncc(Cc4ccc5ncccc5c4)n3n2)cc1F ?
f

Would you mind doing CC(C)Nc1cc(-c2c[nH]c(C(=O)N[C@H](CO)c3cccc(Cl)c3)c2)c(Cl)cn1 as well?
t

Repeat for the following compound: CN1N=C(N)c2cn([C@@H]3O[C@H](COP(=O)(O)O)[C@@H](O)[C@H]3O)c3ncnc1c23 [TRICIRIBINE PHOSPHATE]
f

Record: C[C@@H](c1ccc2nccn2c1)n1nnc2ncc(-c3cnn(C)c3)nc21
f

// next record CCCS(=O)(=O)Nc1ccc(F)c(C(=O)c2c[nH]c3ncc(-c4ccc(Cl)cc4)cc23)c1F
f

Item: CN1CC[C@@H](c2c(O)cc(O)c3c(=O)cc(-c4ccccc4Cl)oc23)[C@@H]1CO
f

Also O=C1NC(=O)/C(=C/c2ccc3nccc(-c4ccncc4)c3c2)S1 ?
f

====

target: Serine/threonine-protein kinase SIK3 (Homo sapiens, UniProt Q9Y2K2); note: in the data inactive means no Kd found up to 30 µM
Sequence (Q9Y2K2 whole entry): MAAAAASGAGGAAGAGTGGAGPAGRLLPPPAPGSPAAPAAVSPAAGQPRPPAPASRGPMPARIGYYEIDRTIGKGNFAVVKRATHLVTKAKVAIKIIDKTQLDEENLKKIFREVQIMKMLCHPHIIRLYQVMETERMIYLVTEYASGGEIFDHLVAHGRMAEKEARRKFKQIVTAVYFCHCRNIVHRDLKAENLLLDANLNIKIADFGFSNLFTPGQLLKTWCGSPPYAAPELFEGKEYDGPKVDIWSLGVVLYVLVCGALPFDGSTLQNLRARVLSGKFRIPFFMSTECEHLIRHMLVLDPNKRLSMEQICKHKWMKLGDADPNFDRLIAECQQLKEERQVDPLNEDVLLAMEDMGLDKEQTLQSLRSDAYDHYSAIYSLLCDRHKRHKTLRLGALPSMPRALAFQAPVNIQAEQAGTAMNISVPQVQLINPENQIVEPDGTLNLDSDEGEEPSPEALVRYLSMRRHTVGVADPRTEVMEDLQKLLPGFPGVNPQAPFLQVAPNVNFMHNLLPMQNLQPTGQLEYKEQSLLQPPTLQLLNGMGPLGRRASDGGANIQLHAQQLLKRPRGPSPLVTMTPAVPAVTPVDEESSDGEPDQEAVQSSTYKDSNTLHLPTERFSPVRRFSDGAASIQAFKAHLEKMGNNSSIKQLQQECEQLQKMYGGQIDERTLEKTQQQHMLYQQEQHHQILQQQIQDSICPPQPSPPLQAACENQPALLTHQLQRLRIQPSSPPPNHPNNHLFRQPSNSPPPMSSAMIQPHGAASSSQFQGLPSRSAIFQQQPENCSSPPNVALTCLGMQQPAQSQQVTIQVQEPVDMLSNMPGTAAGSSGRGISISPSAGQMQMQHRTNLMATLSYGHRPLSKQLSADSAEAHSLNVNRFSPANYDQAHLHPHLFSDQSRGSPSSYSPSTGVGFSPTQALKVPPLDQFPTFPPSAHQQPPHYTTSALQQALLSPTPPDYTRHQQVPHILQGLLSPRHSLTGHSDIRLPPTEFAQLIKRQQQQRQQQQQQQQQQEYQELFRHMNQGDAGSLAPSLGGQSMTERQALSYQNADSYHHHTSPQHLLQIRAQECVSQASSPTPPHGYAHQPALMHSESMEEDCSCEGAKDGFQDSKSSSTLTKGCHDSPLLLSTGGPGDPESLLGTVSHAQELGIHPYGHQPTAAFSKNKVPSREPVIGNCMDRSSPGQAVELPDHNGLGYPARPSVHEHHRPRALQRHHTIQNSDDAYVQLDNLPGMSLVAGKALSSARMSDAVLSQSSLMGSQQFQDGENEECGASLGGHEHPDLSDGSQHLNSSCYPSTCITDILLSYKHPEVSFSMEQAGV
The source made the active and inactive calls.
Respond using exactly one of the listed classes: active, inactive

What is the recorded call for this molecule in the test? CO[C@H]1C[C@@H]2CC[C@@H](C)[C@@](O)(O2)C(=O)C(=O)N2CCCC[C@H]2C(=O)O[C@H]([C@H](C)C[C@@H]2CC[C@@H](OCCO)[C@H](OC)C2)CC(=O)[C@H](C)/C=C(\C)[C@@H](O)[C@@H](OC)C(=O)[C@H](C)C[C@H](C)/C=C/C=C/C=C/1C
inactive

What do you have for OCCn1cc(-c2cnc3nnn(Cc4ccc5ncccc5c4)c3n2)cn1 ?
inactive

Another molecule: O=C(Nc1ccc(-c2ccnc(Nc3ccc(N4CCOCC4)cc3)n2)cc1)C1CCCN1 (stereo not drawn)
active

====

The source made the active and inactive calls.
# Kd measurements, system: UniProt:Q13418
# Sequence (Q13418 whole entry): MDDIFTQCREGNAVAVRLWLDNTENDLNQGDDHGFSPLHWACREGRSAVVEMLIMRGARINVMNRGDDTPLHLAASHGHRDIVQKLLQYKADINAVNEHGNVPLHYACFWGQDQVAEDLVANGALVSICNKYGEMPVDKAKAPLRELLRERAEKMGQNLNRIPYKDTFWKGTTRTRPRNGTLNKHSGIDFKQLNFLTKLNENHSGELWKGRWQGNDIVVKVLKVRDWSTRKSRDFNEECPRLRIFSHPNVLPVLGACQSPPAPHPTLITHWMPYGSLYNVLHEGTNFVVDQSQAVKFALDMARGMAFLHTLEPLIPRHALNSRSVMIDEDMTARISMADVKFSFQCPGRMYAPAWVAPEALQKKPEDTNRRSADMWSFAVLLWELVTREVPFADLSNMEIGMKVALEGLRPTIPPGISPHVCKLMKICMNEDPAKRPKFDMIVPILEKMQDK

What measured Kd goes with CN(C)C(=O)c1cc2cnc(Nc3ccc(N4CCNCC4)cn3)nc2n1C1CCCC1 ?
> 30 µM (inactive)

What do you have for Cc1cc2c(F)c(Oc3ncnn4cc(OC[C@@H](C)OC(=O)[C@H](C)N)c(C)c34)ccc2[nH]1 [BRIVANIB ALANINATE] ?
> 30 µM (inactive)

Note, next up: COc1ccc(-c2ccc3c(N4CCOC[C@@H]4C)nc(N4CCOC[C@@H]4C)nc3n2)cc1CO
> 30 µM (inactive)

Now the compound Cc1cn(-c2cc(NC(=O)c3ccc(C)c(Nc4nccc(-c5cccnc5)n4)c3)cc(C(F)(F)F)c2)cn1
0.02 µM

====

I'd appreciate it if you could supply Kd values for the items below.
target: Septin-9 (Homo sapiens); note: in the data inactive means no Kd found up to 30 µM
Sequence (Q9UHD8 whole entry): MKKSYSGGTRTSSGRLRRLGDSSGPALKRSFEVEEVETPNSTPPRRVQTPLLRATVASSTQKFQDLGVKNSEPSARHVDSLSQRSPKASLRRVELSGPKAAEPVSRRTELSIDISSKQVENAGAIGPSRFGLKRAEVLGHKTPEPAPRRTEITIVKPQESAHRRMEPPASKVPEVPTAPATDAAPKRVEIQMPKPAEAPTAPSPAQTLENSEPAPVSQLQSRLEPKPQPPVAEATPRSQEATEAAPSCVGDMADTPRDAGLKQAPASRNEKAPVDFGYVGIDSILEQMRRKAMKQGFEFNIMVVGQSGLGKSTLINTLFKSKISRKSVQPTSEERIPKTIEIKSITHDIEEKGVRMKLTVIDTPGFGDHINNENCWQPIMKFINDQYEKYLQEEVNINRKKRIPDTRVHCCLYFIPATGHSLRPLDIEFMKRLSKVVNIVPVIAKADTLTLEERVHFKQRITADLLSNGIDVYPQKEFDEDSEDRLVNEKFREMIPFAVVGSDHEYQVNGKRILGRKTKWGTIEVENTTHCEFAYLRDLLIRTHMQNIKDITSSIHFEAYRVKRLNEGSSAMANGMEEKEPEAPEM
Calls of active or inactive are those of the source.

Which Kd value belongs to COc1cc2nccc(Oc3ccc(NC(=O)NC4CC4)c(Cl)c3)c2cc1C(N)=O ?
> 30 µM (inactive)

Cool, now CNS(=O)(=O)Nc1nccc(Cc2c(C)c3ccc(Oc4ncccn4)cc3oc2=O)c1F
> 30 µM (inactive)

Likewise for CC(=O)Nc1cccc(-n2c(=O)n(C3CC3)c(=O)c3c(Nc4ccc(I)cc4F)n(C)c(=O)c(C)c32)c1 ?
> 30 µM (inactive)

Moving on to COc1cc(CCc2cc(NC(=O)c3ccc(N4C[C@@H](C)N[C@@H](C)C4)cc3)n[nH]2)cc(OC)c1
> 30 µM (inactive)

Then this compound: COc1ccc(-c2ccc3c(N4CCOC[C@@H]4C)nc(N4CCOC[C@@H]4C)nc3n2)cc1CO
> 30 µM (inactive)

Next compound up: CC[C@H](Nc1ncnc2[nH]cnc12)c1nc2cccc(F)c2c(=O)n1-c1ccccc1
> 30 µM (inactive)

Further, for CNC(=O)c1cc(Oc2ccc(NC(=O)Nc3ccc(Cl)c(C(F)(F)F)c3)c(F)c2)ccn1 ?
> 30 µM (inactive)

Likewise for CCn1c(-c2nonc2N)nc2c(C#CC(C)(C)O)ncc(OC[C@H]3CCCNC3)c21 ?
> 30 µM (inactive)

And O=C(Nc1ccc(-c2ccnc(Nc3ccc(N4CCOCC4)cc3)n2)cc1)C1CCCN1 (configuration not stated) ?
> 30 µM (inactive)

Would you mind doing Cn1cc(-c2ccc(F)c(C(F)(F)F)c2)nc1C1CCN(c2ncnc3[nH]ncc23)CC1 as well?
> 30 µM (inactive)

What do you get for C[C@@H](Nc1cc(F)cc(F)c1)c1cc(C(=O)N(C)C)cc2c(=O)cc(N3CCOCC3)oc12 ?
> 30 µM (inactive)

Query CCCS(=O)(=O)Nc1ccc(F)c(C(=O)c2c[nH]c3ncc(-c4ccc(Cl)cc4)cc23)c1F next
> 30 µM (inactive)

Consider next the compound CNC(=O)c1ccc(C)c(-n2c(C)cc(OCc3ccc(F)cc3F)c(Br)c2=O)c1 in the same way.
> 30 µM (inactive)

Quick one: Cc1ccc(-n2nc(C(C)(C)C)cc2NC(=O)NCc2cc(F)ccc2Oc2ccc3c(cnn3CCO)c2)cc1
> 30 µM (inactive)

Same question for CNC(=O)CN1CCC(Oc2cc3c(Nc4cccc(Cl)c4F)ncnc3cc2OC)CC1 please.
> 30 µM (inactive)

Now the compound Cc1cc([C@@H](C)Nc2ccccc2C(=O)O)c2nc(N3CCOCC3)cc(=O)n2c1
> 30 µM (inactive)

Would you kindly repeat that for Cc1c(F)cc(C(=O)NC2CC2)cc1-c1ccc(C(=O)NCC(C)(C)C)cn1 ?
> 30 µM (inactive)

Now the compound COc1cc(OC)c(/C=C/S(=O)(=O)Cc2ccc(OC)c(NCC(=O)O)c2)c(OC)c1
> 30 µM (inactive)

What do we get for CN1CCN(c2ccc3nc(-c4c(N)c5c(F)cccc5[nH]c4=O)[nH]c3c2)CC1 ?
> 30 µM (inactive)

// same read-out, input: CN1CC[C@@H](c2c(O)cc(O)c3c(=O)cc(-c4ccccc4Cl)oc23)[C@@H]1CO
> 30 µM (inactive)

Try this compound next: O=C(Nc1cccc(Cl)c1)Nc1ncc(CCNc2ncnc3ccsc23)s1
> 30 µM (inactive)

Let us now turn to C[C@@H](c1ccc2nccn2c1)n1nnc2ncc(-c3cnn(C)c3)nc21
> 30 µM (inactive)

Next entry: O=C1NC(=O)/C(=C/c2ccc3nccc(-c4ccncc4)c3c2)S1
> 30 µM (inactive)

Request: Nc1nc(N)c2nc(-c3cccc(O)c3)c(-c3cccc(O)c3)nc2n1
> 30 µM (inactive)

Can you handle OCCn1cc(-c2cnc3nnn(Cc4ccc5ncccc5c4)c3n2)cn1 next?
> 30 µM (inactive)

Okay, and Cc1ccc(S(=O)(=O)Nc2nc3ccccc3nc2Nc2ccc3nsnc3c2)cc1 ?
> 30 µM (inactive)

And what about the compound O=C(c1ccc(F)c(F)c1Nc1ccc(I)cc1F)N1CC(O)([C@@H]2CCCCN2)C1 ?
> 30 µM (inactive)

Query COc1cc2nccc(Oc3ccc(NC(=O)Nc4cc(C)on4)c(Cl)c3)c2cc1OC next
> 30 µM (inactive)

Then COC(=O)N[C@@H](C)CNc1nccc(-c2cn(C(C)C)nc2-c2cc(Cl)cc(NS(C)(=O)=O)c2F)n1 ?
> 30 µM (inactive)

Subsequent entry: CN1N=C(N)c2cn([C@@H]3O[C@H](COP(=O)(O)O)[C@@H](O)[C@H]3O)c3ncnc1c23 [TRICIRIBINE PHOSPHATE]
> 30 µM (inactive)

Cool, now CN1CCC(COc2cnc(-c3cccc(Cn4nc(-c5cccc(C#N)c5)ccc4=O)c3)nc2)CC1
> 30 µM (inactive)

Also need C[C@@H]1CN(Cc2ccc(F)cc2)[C@@H](C)CN1C(=O)c1cc2c(C(=O)C(=O)N(C)C)cn(C)c2cc1Cl , thanks.
> 30 µM (inactive)
